Reference source for all entries: paper PMC4336329

Listing of entries alongside the reported hERG current change (%, negative = inhibition) at 10uM.
Target: human ether-à-go-go-related gene (hERG) potassium channel (human);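 also: peak tail current of the secondary pulse compared with the same well before compound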
Sequence (Q12809 whole entry, looked up): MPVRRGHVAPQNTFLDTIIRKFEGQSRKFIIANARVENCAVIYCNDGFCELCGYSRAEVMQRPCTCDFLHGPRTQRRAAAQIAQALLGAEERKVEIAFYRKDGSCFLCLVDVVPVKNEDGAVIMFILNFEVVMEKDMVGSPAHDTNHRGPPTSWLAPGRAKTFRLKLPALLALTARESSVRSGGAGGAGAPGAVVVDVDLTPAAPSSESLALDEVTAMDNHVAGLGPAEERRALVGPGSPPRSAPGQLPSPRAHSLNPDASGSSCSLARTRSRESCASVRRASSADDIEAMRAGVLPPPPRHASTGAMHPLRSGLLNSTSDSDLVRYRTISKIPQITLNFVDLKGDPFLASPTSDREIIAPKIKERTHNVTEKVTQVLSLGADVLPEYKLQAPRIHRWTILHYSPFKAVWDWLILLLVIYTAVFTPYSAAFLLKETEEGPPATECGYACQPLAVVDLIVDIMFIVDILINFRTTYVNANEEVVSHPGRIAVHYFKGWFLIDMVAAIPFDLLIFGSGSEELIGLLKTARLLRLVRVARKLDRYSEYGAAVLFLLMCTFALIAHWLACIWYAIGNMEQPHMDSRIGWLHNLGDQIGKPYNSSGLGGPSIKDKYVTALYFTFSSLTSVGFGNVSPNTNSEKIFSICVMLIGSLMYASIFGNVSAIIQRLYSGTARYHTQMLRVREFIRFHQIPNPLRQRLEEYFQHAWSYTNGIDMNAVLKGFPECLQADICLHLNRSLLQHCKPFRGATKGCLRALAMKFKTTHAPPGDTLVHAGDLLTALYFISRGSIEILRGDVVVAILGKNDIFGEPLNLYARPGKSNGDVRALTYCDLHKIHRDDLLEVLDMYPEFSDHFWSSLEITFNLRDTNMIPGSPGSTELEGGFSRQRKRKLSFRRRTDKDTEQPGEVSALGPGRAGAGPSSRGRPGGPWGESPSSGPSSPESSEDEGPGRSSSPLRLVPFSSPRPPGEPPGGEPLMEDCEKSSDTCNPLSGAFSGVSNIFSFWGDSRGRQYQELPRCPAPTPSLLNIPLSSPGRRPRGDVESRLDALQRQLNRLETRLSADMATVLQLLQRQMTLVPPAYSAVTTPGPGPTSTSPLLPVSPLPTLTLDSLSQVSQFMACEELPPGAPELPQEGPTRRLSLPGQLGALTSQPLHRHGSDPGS
Test: primary screen, population patch clamp on CHO cells stably expressing hERG; higher = less effect of the substance
Hit rate of the full screen: of about 310,000 compounds, about 14,000 (4.5%) showed an effect of 50% or more. The effect is printed as a negative number. Only a selection was taken, and strong results are over-represented in it overall.
parameter.measured: hERG current change (%, negative = inhibition) at 10uM (%)

{"columns": ["molecule", "unit.info", "recorded.number"],
 "data": [
  ["CC(C)C[C@H]1CN=C(Nc2ccccc2)N1CC(C)C", "%", -3.04],
  ["O=C(OCc1csc(-c2ccccc2)n1)c1ccccc1O", "%", 29.6],
  ["CC1CC(C)CN(C(=O)CCC(=O)Nc2nnc(C(C)C)s2)C1 (centres unmarked)", "%", 12.6],
  ["Cc1cccc(/C=C2\\CS/C(=C\\c3cccc(C)c3)C2=O)c1", "%", 0.505],
  ["COc1ccc(-c2nnc(NC(=O)C(C)C)o2)cc1", "%", -3.15],
  ["O=C(CN1CCOCC1)Nc1ccccc1NC(=O)C1CCN(c2ncccn2)CC1", "%", 9.55],
  ["Cc1cccc(C)c1NC(=O)C(=O)NCCOc1ccc(Cl)cc1", "%", -26],
  ["CC(C)CCCN1CCN=C1Nc1ccccc1", "%", -3.11],
  ["O=C(Nc1ccc(C(F)(F)F)cc1)C1CCN(c2cnccn2)CC1", "%", -12.5],
  ["CC(C)CCN1C(Nc2ccccc2)=NC[C@@H]1Cc1ccccc1", "%", -47.9],
  ["CC(C)Cc1nnc(NC(=O)CCC(=O)N2CCN(c3ccc([N+](=O)[O-])cc3)CC2)s1", "%", -72.3]
]}
